Ref: patent US20230203041A1

Target sequence: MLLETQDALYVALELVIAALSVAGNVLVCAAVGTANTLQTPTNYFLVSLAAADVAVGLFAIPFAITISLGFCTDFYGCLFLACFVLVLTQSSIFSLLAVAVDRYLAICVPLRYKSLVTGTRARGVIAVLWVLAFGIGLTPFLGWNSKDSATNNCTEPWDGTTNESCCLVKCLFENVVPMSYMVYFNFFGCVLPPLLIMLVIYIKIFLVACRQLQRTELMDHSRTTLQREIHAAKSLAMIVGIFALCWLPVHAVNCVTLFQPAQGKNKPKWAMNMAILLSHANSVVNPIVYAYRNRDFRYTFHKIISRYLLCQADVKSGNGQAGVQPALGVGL
pKi: −log10 of the molar value.
READOUT TYPE: pKi

* Cc1cc(-c2c(-c3cccc(C#N)c3)nn3ccc(N[C@@H]4CCOC4)nc23)cc(Cl)n1 | 7.92
* CCn1nccc1-c1c(-c2cccc(C#N)c2)nn2ccc(NCC(C)(C)O)nc12 | 7.55
* Cc1cc(-c2c(-c3cccc(C#N)c3)nn3ccc(C(=O)N4CCOCC4)nc23)cc(Cl)n1 | 8.00
* CC(C)(C)OC(=O)N1CCO[C@H](CNc2ccn3nc(-c4ccco4)c(C#N)c3n2)C1 | 5.96
* Cc1cc(-c2c(-c3cccc(C#N)c3)nn3ccc(N)nc23)cc(C)n1 | 8.05
* Cc1cc(-c2c(-c3cccc(C#N)c3)nn3ccc(OCC(C)(C)O)nc23)cc(Cl)n1 | 8.05
* Cc1cc(-c2c(-c3cccc(C#N)c3)nn3ccc(C(=O)NC[C@H]4CNC(=O)C4)nc23)cc(C)n1 | 7.80
* Cc1cc(-c2c(-c3cccc(C#N)c3)nn3ccc(C(=O)NCC(C)(C)O)nc23)ccn1 | 7.68
